Biological target: human glucagon receptor (human, UniProt P47871 26-477)
Sequence (P47871 26-477): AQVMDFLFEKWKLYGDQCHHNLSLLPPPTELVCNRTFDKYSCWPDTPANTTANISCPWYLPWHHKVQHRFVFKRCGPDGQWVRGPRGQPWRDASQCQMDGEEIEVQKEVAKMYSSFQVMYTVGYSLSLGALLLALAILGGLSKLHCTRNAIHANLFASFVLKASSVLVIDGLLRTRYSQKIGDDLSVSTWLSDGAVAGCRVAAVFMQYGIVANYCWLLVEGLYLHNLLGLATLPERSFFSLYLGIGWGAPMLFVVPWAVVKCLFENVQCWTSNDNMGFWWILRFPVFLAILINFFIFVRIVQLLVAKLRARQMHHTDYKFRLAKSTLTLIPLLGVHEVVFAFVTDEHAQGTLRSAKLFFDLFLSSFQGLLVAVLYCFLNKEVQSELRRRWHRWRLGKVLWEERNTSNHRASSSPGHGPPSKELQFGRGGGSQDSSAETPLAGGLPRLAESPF
Test: cell-based or functional assay
Where no end group is shown, it is not given here. [ ]: non-standard residue; d: D form. αMePhe(2,6-F2) = C[C@](N)(Cc1c(F)cccc1F)C(=O)O; αMePhe(2-F) = C[C@](N)(Cc1ccccc1F)C(=O)O; αMeBip(OMe) = alpha-methylated Bip(OMe); αMeD = C[C@](N)(CC(=O)O)C(=O)O; αMeAPPA = not defined here; Aib = CC(C)(N)C(=O)O
cAMP production (pmol/ml/µg prt) with saturated glucagon peptide, at 10 nM overview
Answer format: numeric, pmol/ml/µg prt implied, no suffix.

binder	units.of.measure	obs.value
VH[Aib]QGT[αMePhe(2,6-F2)]TS[αMeD][αMeBip(OMe)][αMeAPPA] (not fully specified (C-terminus); reading uncertain) [Seq. ID. No. 199]	pmol/ml/µg prt	11

Next item in the queue.
Name the reported cAMP production (pmol/ml/µg prt) with saturated glucagon peptide, at 10 nM value associated with the binder VHSQGT[αMePhe(2-F)]TS[αMeD][αMeBip(OMe)][αMeAPPA] (not fully specified (C-terminus); printed as VHSQGT-(αMe-2FPhe)-TS-(αMe-Asp)-(αMe-Bip(OMe))-(αMe-APPA); reading uncertain) [Seq. ID. No. 189]
2
